B1: library; a variant is named by its letters at N, in order (parent)
chain: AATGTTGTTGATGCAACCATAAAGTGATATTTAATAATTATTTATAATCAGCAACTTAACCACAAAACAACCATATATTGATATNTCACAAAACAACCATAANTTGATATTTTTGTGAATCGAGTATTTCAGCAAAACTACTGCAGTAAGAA

Variants of: B1
experiment-summary: relative integration efficiency (T-LR orientation) vs wild-type transposon end (log2 (normalized fold change)); transposon end mutated: left end; higher = more efficient transposition
condition-summary: with VchCAST RNA-guided transposition machinery (E. coli BL21(DE3) host, lacZ target)
outcome-measure: relative integration efficiency (log2)
No unit in the answer, only the number.

CG A40C T41G; 0.224
CG A99T; -1.41
CG T42A T43A A44T T45A; 0.262
CG A34T; 0.848
CG A70G; -0.515

I am curious: what relative integration efficiency (log2) value has been reported for CG A77C T78G ?
0.461

Which relative integration efficiency (log2) reading was recorded for the variant CG A65T A66T ?
0.447

So what does the record say about relative integration efficiency (log2) for CG C55G T56A ?
0.0301
